Measured values drawn from patent US10703756B2 for this set.

target_or_system: JAK3 enzyme (Homo sapiens, UniProt P52333)
Sequence (P52333 1-1124): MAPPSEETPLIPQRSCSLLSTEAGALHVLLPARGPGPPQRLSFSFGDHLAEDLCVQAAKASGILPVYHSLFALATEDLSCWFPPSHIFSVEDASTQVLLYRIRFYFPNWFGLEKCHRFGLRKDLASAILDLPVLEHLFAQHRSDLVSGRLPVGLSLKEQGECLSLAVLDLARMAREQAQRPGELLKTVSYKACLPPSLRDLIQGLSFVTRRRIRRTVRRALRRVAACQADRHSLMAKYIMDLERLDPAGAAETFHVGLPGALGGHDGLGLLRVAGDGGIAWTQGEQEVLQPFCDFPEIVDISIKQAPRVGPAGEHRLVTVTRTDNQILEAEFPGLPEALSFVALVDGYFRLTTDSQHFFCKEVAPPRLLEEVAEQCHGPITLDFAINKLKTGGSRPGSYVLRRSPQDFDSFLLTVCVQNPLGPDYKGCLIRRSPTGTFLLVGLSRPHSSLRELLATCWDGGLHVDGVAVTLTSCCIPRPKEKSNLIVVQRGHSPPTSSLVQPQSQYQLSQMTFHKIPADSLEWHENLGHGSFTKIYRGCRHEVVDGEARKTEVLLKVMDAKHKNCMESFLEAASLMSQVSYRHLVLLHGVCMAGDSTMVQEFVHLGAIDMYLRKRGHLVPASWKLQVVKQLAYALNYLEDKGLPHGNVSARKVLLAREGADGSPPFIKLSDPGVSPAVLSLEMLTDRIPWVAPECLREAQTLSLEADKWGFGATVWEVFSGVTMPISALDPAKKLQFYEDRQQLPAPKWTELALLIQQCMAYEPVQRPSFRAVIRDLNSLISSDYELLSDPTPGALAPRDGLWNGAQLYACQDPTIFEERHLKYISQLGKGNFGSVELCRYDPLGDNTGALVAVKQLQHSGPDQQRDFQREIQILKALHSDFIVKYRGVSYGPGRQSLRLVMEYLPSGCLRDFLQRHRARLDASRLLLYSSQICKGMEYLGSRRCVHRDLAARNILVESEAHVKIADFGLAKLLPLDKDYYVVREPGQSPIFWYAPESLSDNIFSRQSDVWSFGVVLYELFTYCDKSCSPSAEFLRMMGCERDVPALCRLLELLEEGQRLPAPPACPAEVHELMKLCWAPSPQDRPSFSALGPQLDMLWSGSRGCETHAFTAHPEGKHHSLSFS
assay_remarks: JAK Caliper Enzyme Assay at 4 μM ATP
Type: biochemical
pIC50: −log10 of the molar value.
measurement_name: pIC50

Solved cases (5 shown):
{"columns": ["compound", "pIC50"],
 "data": [
  ["C=CC(=O)N1CC[C@H](Nc2cnc3[nH]cc(C(=O)N[C@@H](C)COC)c3n2)[C@H](OC)C1 (single isomer, unassigned) [Example 356]", 8.39],
  ["C=CC(=O)N1CCN(c2cnc3[nH]cc(C(=O)N[C@H](CO)C(CC)CC)c3n2)CC1(C)C [Example 137]", 7.55],
  ["C=CC(=O)N1CCN(c2cnc3[nH]cc(C(=O)NC4CC(F)(F)C4)c3n2)C[C@@H]1CC(C)C [Example 273]", 8.80],
  ["C=CC(=O)N1CCC(Nc2cnc3[nH]cc(C(=O)NCc4ccccc4)c3n2)CC1 [Example 187]", 9.30],
  ["C=CC(=O)N1CCC(Nc2cnc3[nH]cc(S(=O)(=O)NC(C)C)c3n2)CC1 [Example 127]", 8.03]
]}

[a] C=CC(=O)N1C[C@H](C2CC2)[C@H](Nc2cnc3[nH]cc(C(=O)NCCOC)c3n2)C1 [Example 247]
[b] C=CC(=O)N1CCN(c2cnc3[nH]cc(C(=O)N[C@@H](C)[C@H](O)c4ccccc4)c3n2)CC1(C)C [Example 156]
Q: Which record would sort first by descending pIC50, a or b ? Your answer should be the label of the entry you select.
Ans: a

###

target_or_system: JAK3 enzyme (Homo sapiens, UniProt P52333)
Sequence (P52333 1-1124): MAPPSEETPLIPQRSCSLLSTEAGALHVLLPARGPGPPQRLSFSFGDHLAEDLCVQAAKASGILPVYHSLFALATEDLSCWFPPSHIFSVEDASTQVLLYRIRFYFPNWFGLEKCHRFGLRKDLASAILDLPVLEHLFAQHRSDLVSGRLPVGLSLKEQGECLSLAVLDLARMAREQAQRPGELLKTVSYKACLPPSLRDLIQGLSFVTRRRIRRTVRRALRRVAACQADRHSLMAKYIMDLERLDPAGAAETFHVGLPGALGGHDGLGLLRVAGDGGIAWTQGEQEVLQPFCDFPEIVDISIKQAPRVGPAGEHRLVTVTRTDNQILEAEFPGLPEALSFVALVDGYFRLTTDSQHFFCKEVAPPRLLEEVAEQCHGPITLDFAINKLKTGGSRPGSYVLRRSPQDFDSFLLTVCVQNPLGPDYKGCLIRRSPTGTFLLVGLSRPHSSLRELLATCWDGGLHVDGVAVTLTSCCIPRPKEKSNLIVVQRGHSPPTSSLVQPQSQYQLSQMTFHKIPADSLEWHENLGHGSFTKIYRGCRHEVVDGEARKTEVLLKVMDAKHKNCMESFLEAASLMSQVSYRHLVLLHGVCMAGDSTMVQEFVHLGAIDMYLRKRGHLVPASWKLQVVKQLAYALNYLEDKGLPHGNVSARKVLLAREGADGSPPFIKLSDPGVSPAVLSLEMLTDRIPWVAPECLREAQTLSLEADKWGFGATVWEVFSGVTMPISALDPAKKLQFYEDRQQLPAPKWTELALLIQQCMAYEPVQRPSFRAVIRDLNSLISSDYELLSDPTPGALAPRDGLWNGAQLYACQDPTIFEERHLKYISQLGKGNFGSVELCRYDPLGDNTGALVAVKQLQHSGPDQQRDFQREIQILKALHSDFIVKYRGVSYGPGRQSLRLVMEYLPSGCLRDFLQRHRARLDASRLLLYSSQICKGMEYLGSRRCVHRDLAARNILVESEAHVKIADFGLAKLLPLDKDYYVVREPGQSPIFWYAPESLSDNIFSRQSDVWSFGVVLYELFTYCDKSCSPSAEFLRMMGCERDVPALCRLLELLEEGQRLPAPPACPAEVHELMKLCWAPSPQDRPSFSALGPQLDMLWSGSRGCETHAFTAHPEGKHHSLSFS
assay_remarks: JAK Caliper Enzyme Assay at 1 mM ATP
Type: biochemical
pIC50: −log10 of the molar value.
measurement_name: pIC50

Worked cases, answers included:
{"columns": ["compound", "pIC50"],
 "data": [
  ["C=CC(=O)N1CCN(c2cnc3[nH]cc(C(=O)N[C@@H]4CCO[C@H]4C)c3n2)CC1(C)C [Example 160]", 6.33],
  ["C=CC(=O)N1CCN(c2cnc3[nH]cc(C(=O)NCC4(O)CCC(F)(F)CC4)c3n2)CC1(C)C [Example 291]", 5.83],
  ["C=CC(=O)N1CCC(Oc2cnc3[nH]cc(C(=O)NCC(C)(F)F)c3n2)CC1 [Example 215]", 7.01],
  ["C=CC(=O)N1CCC(Oc2cnc3[nH]cc(C(C)O)c3n2)CC1 (racemic) [Example 117]", 5.83]
]}

[A] C=CC(=O)N1CCN(c2cnc3[nH]cc(C(=O)NC(C)(C)COC)c3n2)CC1(C)C [Example 151]
[B] C=CC(=O)N1CC[C@@H](Nc2cnc3[nH]cc(C(=O)NCC4CC(F)(F)C4)c3n2)[C@@H](OC)C1 [Example 309]
[C] C=CC(=O)N1CCC(Oc2cnc3[nH]cc(-c4nnc[nH]4)c3n2)CC1 [Example 120]
[D] C=CC(=O)N1C[C@@H](Nc2ncnc3[nH]ccc23)C[C@@H](C(=O)N(C)C)C1 (racemic) [Example 94]
Q: Rank by pIC50 (largest to smallest). Rank them, then answer with their labels in that order.
Ans: B, D, C, A
(B: 7.23, D: 6.83, C: 6.14, A: 5.82)

[P] C=CC(=O)N1CC[C@@H](Nc2cnc3[nH]cc(C(=O)NCC)c3n2)C1 (single isomer, unassigned) [Example 243]
[Q] C=CC(=O)N1CCN(c2cnc3[nH]cc(C(=O)NCCOC)c3n2)CC1(C)C [Example 265]
[R] C=CC(=O)N1CCC(Oc2cnc3[nH]cc(-c4ncn(CC)n4)c3n2)CC1 [Example 125]
Q: Arrange the 3 compounds by rising pIC50, starting with the smallest. Return value: ordered labels per request.
Ans: R, Q, P
(R: 5.73, Q: 6.13, P: 6.85)

[a] C=CC(=O)N1CCC(Oc2cnc3[nH]cc(C(=O)N[C@H](C)COC)c3n2)CC1 [Example 214]
[b] C=CC(=O)N1CCN(c2cnc3[nH]cc(C(=O)N[C@@H](C)C(=O)OC)c3n2)CC1(C)C [Example 158]
[c] C=CC(=O)N1CCN(c2cnc3[nH]cc(C(=O)NC4CC(F)(F)C4)c3n2)CC1 [Example 283]
[d] C=CC(=O)N1CCC(Nc2cnc3[nH]cc(S(=O)(=O)NC(C)C)c3n2)CC1 [Example 127]
[e] C=CC(=O)N1CCN(c2cnc3[nH]cc(C(=O)NC4CCC4)c3n2)CC1(C)C [Example 289]
Q: Order the records by pIC50, with each subsequent value no larger than the one before. Answer format: list of labels, ordered as asked.
Ans: a, c, e, b, d
